TARGET SYSTEM: phosphorylation levels of ERK1/2 in AsPC-1 (homozygous KRAS-G12D) cells (Homo sapiens, UniProt P01116, G12D)
Sequence (P01116 1-186 G12D): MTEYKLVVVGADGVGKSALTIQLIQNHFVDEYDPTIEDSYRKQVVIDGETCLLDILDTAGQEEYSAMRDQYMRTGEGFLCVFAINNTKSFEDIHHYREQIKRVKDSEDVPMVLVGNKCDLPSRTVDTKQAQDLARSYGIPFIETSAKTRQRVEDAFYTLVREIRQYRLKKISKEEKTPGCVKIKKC
METHOD DESCRIPTION: Cellular phospho-ERK assay in AsPC-1 cells (Alpha Screen), assay medium without fetal bovine serum;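 further: signal taken as phospho-ERK over total ERK per well, both detected in one multiplex bead assay, EC50 from four-parameter logistic fit of dose-response curves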
MEASUREMENT CONDITIONS: phospho-ERK AlphaScreen, 18 h
*1 amine or outer side, *2 acyl side, *3 side chain or, on linkers, in order; H or OH if unused. Where a SMILES comes first, the peptide text is derived from it. Bridges are numbered along the chain shown (N, C = ends). [ ]: non-standard residue; d: D form. Phe(4-guanidino) = N=C(N)Nc1ccc(C[C@H](N)C(=O)O)cc1; Ala(pyrimidin-5-yl) = N[C@@H](Cc1cncnc1)C(=O)O; Nle(5,5-F2) = CC(F)(F)CC[C@H](N)C(=O)O; Phe(4-F) = N[C@@H](Cc1ccc(F)cc1)C(=O)O; Phe(2-F) = N[C@@H](Cc1ccccc1F)C(=O)O; NMe3Pal = CN[C@@H](Cc1cccnc1)C(=O)O; X1 = O=C(C12CC(CN[*:1])(C1)C2)[*:2]; X12 = CC(=O)NCCCN(CC(=O)[*:2])[*:1]; NMeF = CN[C@@H](Cc1ccccc1)C(=O)O; PhLac = O=C(O)[C@@H](O)Cc1ccccc1; 3Pal = N[C@@H](Cc1cccnc1)C(=O)O; Ahp(2) = CCCCC[C@H](N)C(=O)O; Cba = N[C@@H](CC1CCC1)C(=O)O; αMeC = C[C@](N)(CS)C(=O)O; NMeA = CN[C@@H](C)C(=O)O; Nle = CCCC[C@H](N)C(=O)O

- MOLECULE: "CCCCC[C@@H]1NC(=O)[C@H](Cc2ccc(OC)cc2)NC(=O)[C@H](CC2CCC2)NC(=O)[C@H](Cc2ccc(NC(=N)N)cc2)NC(=O)CN(CCCNC(C)=O)C(=O)[C@H](Cc2ccccc2)NC(=O)CSC[C@@](C)(C(N)=O)NC(=O)[C@H](Cc2ccccc2)N(C)C1=O [compound 387] ({CH2CO}-F[X12][Phe(4-guanidino)][Cba]Y(Me)[Ahp(2)][NMeF][αMeC]-NH2; thioether N-8)"
  LIMIT QUALIFIER: ">"
  EC50 (µM): 50.8
- MOLECULE: "CCCC[C@@H]1NC(=O)[C@H](Cc2cccnc2)NC(=O)[C@H](C)N(C)C(=O)[C@H](Cc2ccc(F)cc2)NC(=O)C23CC(CNC(=O)[C@H](Cc4cccnc4)N(C)C(=O)[C@H](CCCC)NC(=O)[C@H](Cc4ccccc4F)NC1=O)(C2)C3 [compound 167] (cyclo([3Pal][Nle][Phe(2-F)][Nle][NMe3Pal][X1][Phe(4-F)][NMeA]))"
  LIMIT QUALIFIER: "="
  EC50 (µM): 42.8
- MOLECULE: "C[C@H]1C(=O)N[C@@H](Cc2cncnc2)C(=O)N[C@@H](CC2CCC2)C(=O)N[C@@H](Cc2ccccc2F)C(=O)N[C@@H](CCC(C)(F)F)C(=O)N(C)[C@@H](Cc2ccccc2)C(=O)NCC23CC(C2)(C3)C(=O)O[C@@H](Cc2ccccc2)C(=O)N1C [compound 224] (cyclo([Cba][Phe(2-F)][Nle(5,5-F2)][NMeF][X1][PhLac][NMeA][Ala(pyrimidin-5-yl)]))"
  LIMIT QUALIFIER: "="
  EC50 (µM): 0.542
